Test system: H82 (small lung cell carcinoma) cells
Assay: 96 hr MTS dose response experiments in H82 cells
Assay type: cell-based, human
Settings: Homo sapiens, NCI-H82, 96 hr exposure

>  <compound>
CC1(C)C2CCC(CNCCCNCCCNCCCNCC3CCC4CC3C4(C)C)C1C2 (stereo not drawn)

>  <IC50>
< 1 µM

$$$$
>  <compound>
CC1(C)C2CCC(CNCCCNCCCNCCCN)C1C2 (stereo not drawn) [ZQW-35c]

>  <IC50>
1 to 10 µM

$$$$
>  <compound>
c1ccc(-c2ccccc2CNCCCNCCCNCCCNCc2ccccc2-c2ccccc2)cc1

>  <IC50>
0.53 to 2.7 µM

$$$$
>  <compound>
CC(C)(C)CCNCCCNCCCNCCCNCC(F)(F)F

>  <IC50>
5 to 10 µM

$$$$
>  <compound>
CCNCCCNCCCNCCCNCc1ccccc1-c1ccccc1 [39-TDW-20c]

>  <IC50>
2.76 to 5.52 µM

$$$$
>  <compound>
CCNCCCNCCCNCCCNCC1CCC2CC1C2(C)C (stereo not drawn)

>  <IC50>
1 to 10 µM

$$$$
